Reported values: IC50 for JNK2 (Homo sapiens, UniProt P45984), one per item.
All answers are understood in nM, so give the number only.

O=C(NCc1ccc(S(=O)(=O)N2CCC(Nc3ccc(Cl)cc3)CC2)s1)c1ccc(Cl)cc1 [Example 120] ... 560
O=C(NCc1ccc(S(=O)(=O)N2CCN(C(=O)c3cccc4ccccc34)CC2)s1)c1ccc(Cl)cc1 [Example 168] ... 1200
NS(=O)(=O)c1cccc(NC2CCN(S(=O)(=O)c3ccc(CNC(=O)c4ccc(Cl)cc4)s3)CC2)c1 [Example 155] ... 500

Let's switch to this compound now.
Dear colleague, I am looking for the recorded IC50 of the following compound: O=C(NCc1ccc(S(=O)(=O)N2CCCN(C(=O)Cc3ccccc3)CC2)s1)c1ccc(Cl)cc1 [Example 84] 1300

---

A set of compounds tested on JNK3 (Homo sapiens, UniProt P53779), with measured pIC50:
Scale explanation: pIC50 corresponds to minus log10 of a concentration expressed in moles per litre.

// worked examples, pIC50 included
CCCc1cccc(NC2CCN(S(=O)(=O)c3ccc(CNC(=O)c4ccc(Cl)cc4)s3)CC2)c1 [Example 110] ... 6.96
NS(=O)(=O)c1cccc(NC2CCN(S(=O)(=O)c3ccc(CNC(=O)c4ccc(Cl)cc4)s3)CC2)c1 [Example 155] ... 6.28
COC(=O)c1cccc(NC2CCN(S(=O)(=O)c3ccc(CNC(=O)c4ccc([N+](=O)[O-])cc4)s3)CC2)c1 [Example 211] ... 6.57
O=C(NCc1ccc(S(=O)(=O)N2CCC(C(=O)c3ccc(F)cc3F)CC2)s1)c1ccc(Cl)cc1 [Example 37] ... 6.17
O=C(NCc1ccc(S(=O)(=O)N2CCN(C(=O)c3cccc4ccccc34)CC2)s1)c1ccc(Cl)cc1 [Example 168] ... 6.05

Provide the documented pIC50 with JNK3 (Homo sapiens, UniProt P53779) as the system for O=C(NCc1ccc(S(=O)(=O)N2CCC(n3nnc4ccccc43)CC2)s1)c1ccc(Cl)cc1 [Example 91] 6.82

pIC50 of O=C(NCc1ccc(S(=O)(=O)N2CCCN(C(=O)Cc3ccccc3)CC2)s1)c1ccc(Cl)cc1 [Example 84] on JNK3 (Homo sapiens, UniProt P53779)? 6.07
